target: H3 receptor (Cavia porcellus, UniProt Q9JI35); construct: the longitudinal muscle layer and adhering myenteric plexus was teased away; from tissue; host or cells: ileal longitudinal muscle with adhering myenteric plexus of male Dunkin-Hartley guinea pigs; experiment: H3 receptor bioassay (functional assay), guinea pig ileal longitudinal muscle myenteric plexus; format: cell-based; conditions: antagonism of R-(α)-methylhistamine E/[A] curve, Schild's methods; electrically stimulated guinea pig ileum; variance ±0.15 log units; read-out: pKB (functional assay) (converted)
For each record, write down the corresponding Kb.
Answers are plain numbers, in nM.

// solved cases for Kb follow
1. O=S(=O)(CCC1CCCCC1)NCCc1c[nH]cn1 [Example 23] : 1350
2. O=S(=O)(Cc1ccc(Cl)cc1)NCCCc1c[nH]cn1 [Example 26] : 513
3. O=S(=O)(NCCCCCc1c[nH]cn1)NCc1ccc(C(F)(F)F)cc1 [Example 63] : 4.07
4. O=S(=O)(NCc1ccc(Br)cc1)N(CCCCc1c[nH]cn1)Cc1ccc(Br)cc1 [Example 67] : 603
5. O=S(=O)(NCCCCCCc1c[nH]cn1)NCc1ccc(Br)cc1 [Example 58] : 1.05

For each of the items listed, what is its Kb?
1. CN(CCCCc1c[nH]cn1)S(=O)(=O)N(C)Cc1ccc(Cl)cc1 [Example 68]
2. O=S(=O)(NCCCc1c[nH]cn1)c1ccccc1 [Example 27]

# output
1: 17; 2: 7760

Field: Kb. Fill in for each record below.
1. O=S(=O)(NCCCCCCCc1c[nH]cn1)NCc1ccc(Cl)cc1 [Example 38]
2. O=S(=O)(NCCCCc1c[nH]cn1)c1ccc2ccccc2c1 [Example 7]

# output
[4.27, 155]

* * *

molecular target: Histamine H3 (Cavia porcellus); construct: ileum longitudinal muscle myenteric plexus membranes; from tissue; host or cells: ileum longitudinal muscle myenteric plexus membranes of male Dunkin Hartley guinea pigs; assay: Histamine H3 radioligand binding assay, [3H]-R-α-methylhistamine, guinea pig ileum longitudinal muscle myenteric plexus membranes
Sequence (Q9JI35 whole entry): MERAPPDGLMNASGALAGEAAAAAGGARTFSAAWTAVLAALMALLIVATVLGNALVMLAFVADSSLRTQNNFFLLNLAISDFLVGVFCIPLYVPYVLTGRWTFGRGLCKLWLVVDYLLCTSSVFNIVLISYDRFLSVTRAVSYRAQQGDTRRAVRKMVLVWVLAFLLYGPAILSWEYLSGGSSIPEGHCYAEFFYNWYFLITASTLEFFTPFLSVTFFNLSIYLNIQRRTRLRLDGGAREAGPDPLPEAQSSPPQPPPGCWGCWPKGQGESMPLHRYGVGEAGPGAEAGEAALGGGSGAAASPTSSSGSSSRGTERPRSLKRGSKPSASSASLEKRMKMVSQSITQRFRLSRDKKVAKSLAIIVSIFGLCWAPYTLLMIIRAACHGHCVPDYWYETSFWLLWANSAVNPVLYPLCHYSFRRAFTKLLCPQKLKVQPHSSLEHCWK
Exercise: state measured Ki for each of the molecules provided.
Numbers only, in nM.

1. O=S(=O)(Cc1ccc(Br)cc1)NCCCCc1c[nH]cn1 : 3.09

Proceeding to the next molecule to report its Ki.
# input Param readout= Ki; system= Histamine H3 (Cavia porcellus); entry= `O=S(=O)(CCc1ccc(Cl)cc1)NCCCc1c[nH]cn1` ; returns value.
# output 56.2

* * *

Would you kindly list log10(Kb) for each of these compounds?
molecular target: H3 receptor (Cavia porcellus, UniProt Q9JI35); construct: the longitudinal muscle layer and adhering myenteric plexus was teased away; from tissue; host or cells: ileal longitudinal muscle with adhering myenteric plexus of male Dunkin-Hartley guinea pigs; assay: H3 receptor bioassay (functional assay), guinea pig ileal longitudinal muscle myenteric plexus; assay type: cell-based; settings: antagonism of R-(α)-methylhistamine E/[A] curve, Schild's methods; electrically stimulated guinea pig ileum; variance ±0.15 log units; read-out: pKB (functional assay) (converted)
Hi team, quick reminder: these entries are log10 of Kb (nM).

Provide each entry's log10(Kb) from the list below.
1. O=S(=O)(Cc1ccc(Cl)cc1)NCCCCCCCCc1c[nH]cn1
2. COC(=O)[C@H](Cc1c[nH]cn1)NS(=O)(=O)c1ccc2ccccc2c1
3. O=S(=O)(NCCCCc1c[nH]cn1)NCc1ccc(I)cc1

# output
1. 2.36
2. 4.01
3. 0.51

Each compound below has a recorded value; state its log10(Kb).
1. O=S(=O)(NCCCCc1c[nH]cn1)NCc1ccc(C(F)(F)F)cc1
2. O=S(=O)(CCCC1CCCCC1)NCCc1c[nH]cn1

# output
1. 0.52
2. 2.60

* * *

Target: H3 receptor (Cavia porcellus, UniProt Q9JI35)
Construct: the longitudinal muscle layer and adhering myenteric plexus was teased away; from tissue; host or cells: ileal longitudinal muscle with adhering myenteric plexus of male Dunkin-Hartley guinea pigs
Experiment: H3 receptor bioassay (functional assay), guinea pig ileal longitudinal muscle myenteric plexus
Type: cell-based
Conditions: antagonism of R-(α)-methylhistamine E/[A] curve, Schild's methods; electrically stimulated guinea pig ileum; variance ±0.15 log units; read-out: pKB (functional assay) (converted)
Description: The biological activity of the compounds of the examples was measured using the ileal longitudinal muscle, myenteric plexus assay described by Paton and Aboo Zar (J. Physiol. 194, 13-33 (1968)). Male Dunkin-Hartley guinea pigs (250-300 g) were employed. […] All measurements were recorded isometrically (Grass FTO3 transducer). […] The experimental E/[A] curve data was expressed as the percentage inhibition of the peak height of electrically-stimulated contraction. […]
Kb vs 50 nM: less than gives condition met; not less than gives condition not met.

1. O=S(=O)(NCCCc1c[nH]cn1)NCc1ccc(Cl)cc1 : condition not met
2. O=S(=O)(N[C@@H]1C[C@H]1c1c[nH]cn1)c1ccc2ccccc2c1 (relative stereo) : condition not met
3. O=S(=O)(NCCCCCc1c[nH]cn1)NCc1ccc(Cl)cc1 : condition met
4. O=S(=O)(NCCCCCCc1c[nH]cn1)NCc1ccc(Cl)cc1 : condition met
5. O=S(=O)(NCCCc1c[nH]cn1)NCc1ccccc1 : condition not met

# input Identify whether the compound `CN(CCCCc1c[nH]cn1)S(=O)(=O)NCc1ccc(Cl)cc1` records Kb below 50 nM.
# output condition met

# input Hello, is Kb of the following compound strictly smaller than 50 nM? `O=S(=O)(NCCCCCc1c[nH]cn1)NCc1ccc(Br)cc1`
# output condition met

# input hey, is Kb for `O=S(=O)(Cc1ccc2ccccc2c1)NCCc1c[nH]cn1` lower than 50 nM or not?
# output condition not met

# input Bench note: check whether `O=S(=O)(NCCCCc1c[nH]cn1)NCc1ccc(Cl)cc1` shows Kb below 50 nM
# output condition met

# input Dear colleague, could you confirm whether Kb of `O=S(=O)(NCCCCCCc1c[nH]cn1)NCc1ccc(F)cc1` falls below 50 nM? Thanks.
# output condition met

# input For `O=S(=O)(NCCCCCc1c[nH]cn1)NCc1ccc(F)cc1` , is the recorded Kb below the cut-off of 50 nM?
# output condition met

# input Determine whether this compound shows Kb lower than 50 nM (ties excluded): `O=S(=O)(NCCCCCCc1c[nH]cn1)NCc1ccc(-c2ccccc2)cc1`
# output condition met

# input Lab note: confirm whether the reported Kb for this compound is below 50 nM, equality not counting. compound: `O=S(=O)(NCCCCc1c[nH]cn1)NCCc1ccc(Cl)cc1`
# output condition met

# input Kb under 50 nM? Item: `O=S(=O)(NCCCCCCCc1c[nH]cn1)c1ccc2ccccc2c1`
# output condition not met

# input Identify whether the compound `O=S(=O)(Cc1ccc(Cl)cc1)NCCCCCCc1c[nH]cn1` records Kb below 50 nM.
# output condition met

* * *

target: Histamine H3 (Cavia porcellus); construct: ileum longitudinal muscle myenteric plexus membranes; from tissue; host or cells: ileum longitudinal muscle myenteric plexus membranes of male Dunkin Hartley guinea pigs; test: Histamine H3 radioligand binding assay, [3H]-R-α-methylhistamine, guinea pig ileum longitudinal muscle myenteric plexus membranes; details: 3 nM [3H]-R-α-methylhistamine, 165 min, 21±3° C., Cheng Prusoff; variance ±0.12 log units; read-out: pK1 (binding assay) (converted)
Categorize each record by its Ki using low value: < 5 nM; medium value: ≥ 5 nM and < 20 nM; high value: ≥ 20 nM

Some entries whose results are on file:
1) O=S(=O)(NCCCCCc1c[nH]cn1)NCc1ccc(C(F)(F)F)cc1 : medium value
2) C[C@H](NS(=O)(=O)NCCCCc1c[nH]cn1)c1ccccc1 : high value
3) O=S(=O)(NCCCCc1c[nH]cn1)NCc1ccc(Cl)c(Cl)c1 : low value

# input Consider `O=S(=O)(Cc1ccc(C(F)(F)F)cc1)NCCCCc1c[nH]cn1` . To which Ki class does it belong?
# output low value

# input Sort `O=S(=O)(NCCCCCCc1c[nH]cn1)NCc1ccc(C(F)(F)F)cc1` into one of the categories.
# output low value

# input Which category does the recorded Ki put `O=S(=O)(NCCCCc1c[nH]cn1)NCc1ccccc1Cl` in?
# output high value

# input Textbook exercise: identify the category of the compound given here, `O=S(=O)(NCCCCc1c[nH]cn1)NCc1cccc(Cl)c1` , according to its measured value.
# output medium value

# input State the class of the compound shown: `O=S(=O)(NCCCCCCc1c[nH]cn1)NCc1ccc(-c2ccccc2)cc1`
# output medium value

# input In plain terms, what class is `CN(CCCCc1c[nH]cn1)S(=O)(=O)N(C)Cc1ccc(Cl)cc1` ?
# output medium value

* * *

Target: H3 receptor (Cavia porcellus, UniProt Q9JI35)
Construct: the longitudinal muscle layer and adhering myenteric plexus was teased away; from tissue; host or cells: ileal longitudinal muscle with adhering myenteric plexus of male Dunkin-Hartley guinea pigs
Assay: H3 receptor bioassay (functional assay), guinea pig ileal longitudinal muscle myenteric plexus
Format: cell-based
Conditions: antagonism of R-(α)-methylhistamine E/[A] curve, Schild's methods; electrically stimulated guinea pig ileum; variance ±0.15 log units; read-out: pKB (functional assay) (converted)
Protocol: The biological activity of the compounds of the examples was measured using the ileal longitudinal muscle, myenteric plexus assay described by Paton and Aboo Zar (J. Physiol. 194, 13-33 (1968)). Male Dunkin-Hartley guinea pigs (250-300 g) were employed. […] All measurements were recorded isometrically (Grass FTO3 transducer). […] The experimental E/[A] curve data was expressed as the percentage inhibition of the peak height of electrically-stimulated contraction. […]
Would you mind sorting the entries by Kb according to these classes? lower segment: < 20 nM; middle segment: ≥ 20 nM and < 400 nM; upper segment: ≥ 400 nM

1) O=S(=O)(Cc1ccc(Cl)cc1)NCCCCCCCc1c[nH]cn1 [Example 32] : middle segment
2) O=S(=O)(NCCc1c[nH]cn1)c1ccc2ccccc2c1 [Example 1] : middle segment
3) O=S(=O)(NCCc1c[nH]cn1)NCc1ccc(Cl)cc1 [Example 37] : upper segment
4) O=S(=O)(/C=C/c1ccccc1)NCCc1c[nH]cn1 [Example 20] : upper segment
5) O=S(=O)(NCCCCCCCCc1c[nH]cn1)c1ccc2ccccc2c1 [Example 30] : middle segment

# input Sort into band: O=S(=O)(NCCc1c[nH]cn1)c1ccccc1 [Example 2]
# output upper segment

# input # bin label for O=S(=O)(NCCCc1c[nH]cn1)NCCc1ccc(Cl)cc1 [Example 56]
# output upper segment

# input Please classify: CN(Cc1ccc(Cl)cc1)S(=O)(=O)NCCCCc1c[nH]cn1 [Example 70]
# output lower segment

# input Which class does CN(CCCCc1c[nH]cn1)S(=O)(=O)CCc1ccc(Cl)cc1 [Example 85] fall in?
# output lower segment
